- ASSAY_SYSTEM: Cathepsin K (Homo sapiens, UniProt P43235)
- PROCEDURE_DETAILS: Cathepsin K inhibition assay (fluorogenic peptide substrate); selectivity ratio vs cathepsin S
- Format: biochemical
- DETAILS: ratio of cathepsin K inhibition constant to cathepsin S inhibition constant; Table II
PARAMETER: Selectivity for Cat. S over Cat. K

Check out these entries, answers already filled in.
N#Cc1ccc(C(=O)N[C@@H](CC2CCCCC2)C(=O)NCCNc2ccc(F)cc2)cc1 [Compound 316]	++ (++, >100)
O=C(N[C@@H](CC1CCCCC1)C(=O)NCCNc1ccc(OC(F)(F)F)cc1)c1ccc(-c2ccccc2)o1 [Compound 65]	++ (++, >100)
COc1ccccc1-c1ccc(C(=O)N[C@@H](CC2CCCCC2)C(=O)NCCNc2ccc(OC(F)(F)F)cc2)o1 [Compound 210]	++ (++, >100)
COc1ccc(NCCNC(=O)[C@H](Cc2ccccc2)NC(=O)c2cccnc2)cc1 [Compound 63]	+ (+, >10)
COc1ccc(NCCNC(=O)C(NC(=O)c2cccc(C)c2)c2ccc(C)cc2C)cc1 (stereo not shown) [Compound 224]	++ (++, >100)
O=C(N[C@@H](CC1CCCCC1)C(=O)NCCNc1ccc(OC(F)(F)F)cc1)C1CCN(c2ncc(Br)cn2)CC1 [Compound 81]	++ (++, >100)

Next item in the queue.
Selectivity for Cat. S over Cat. K reported for this molecule COc1ccc(NCCNC(=O)[C@H](Cc2ccccc2)NC(=O)c2cccc(C)c2Cl)cc1 [Compound 16] : + (+, >10)

* * *

- ASSAY_SYSTEM: Cathepsin K (Homo sapiens, UniProt P43235)
- Sequence (P43235 115-329): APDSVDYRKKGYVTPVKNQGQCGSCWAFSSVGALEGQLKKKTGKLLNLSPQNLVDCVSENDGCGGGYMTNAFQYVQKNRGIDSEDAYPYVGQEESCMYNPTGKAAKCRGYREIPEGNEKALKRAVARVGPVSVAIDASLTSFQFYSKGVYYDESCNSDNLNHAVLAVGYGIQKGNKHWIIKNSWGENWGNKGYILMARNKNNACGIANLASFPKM
- PROCEDURE_DETAILS: Cathepsin K inhibition assay (fluorogenic peptide substrate); selectivity ratio vs cathepsin S
- Format: biochemical
- DETAILS: ratio of cathepsin K inhibition constant to cathepsin S inhibition constant; Table II
PARAMETER: Selectivity for Cat. S over Cat. K

Check out these entries, answers already filled in.
COc1ccc(NCCNC(=O)[C@H](CC2CCCCC2)NC(=O)c2ccc(C(F)(F)F)cc2F)cc1	++ (++, >100)
COc1ccc(NCCNC(=O)[C@H](Cc2ccc(-c3cc(Cl)ccc3Cl)cc2)NC(=O)c2cccc(C)c2)cc1	+ (+, >10)
COc1ccc(NCCNC(=O)[C@H](Cc2ccccc2)NC(=O)CC2C=CCC2)cc1 (stereo partly drawn)	+ (+, >10)
COc1ccc(NCCNC(=O)[C@H](Cc2ccccc2)NC(=O)Nc2ccccc2)cc1	+ (+, >10)
COc1ccc(NCCNC(=O)[C@H](CC2CCCCC2)NC(=O)c2ccc(Br)o2)cc1	++ (++, >100)
COc1ccc(NCCNC(=O)[C@H](Cc2ccc(F)cc2)NC(=O)c2cccc(C)c2)cc1	+++ (+++, >1000)
COc1ccc(NCCNC(=O)[C@H](CC2CCCCC2)NC(=O)c2ccc(-c3ccc4c(c3)OCO4)cc2)cc1	+++ (+++, >1000)
COc1ccc(NCCNC(=O)[C@H](Cc2ccc(Cl)c(Cl)c2)NC(=O)c2cccc(C)c2)cc1	+++ (+++, >1000)
COc1ccc(NCCNC(=O)[C@H](CCC2CCCCC2)NC(=O)c2cccc(C#N)c2)cc1	+++ (+++, >1000)
COc1ccc(NCCNC(=O)[C@H](Cc2ccc(Oc3ccc(OC)cc3)cc2)NC(=O)c2cccc(C)c2)cc1	++ (++, >100)

Selectivity for Cat. S over Cat. K reported for this molecule O=C(N[C@@H](CC1CCCCC1)C(=O)NCCNc1ccc(OC(F)(F)F)cc1)C1CCCN(c2ncc(Br)cn2)C1 (stereo partly drawn) : +++ (+++, >1000)

Selectivity for Cat. S over Cat. K reported for this molecule COc1ccc(NCCNC(=O)[C@H](Cc2ccc(-c3ccc(O)cc3)cc2)NC(=O)c2cccc(C)c2)cc1 : ++ (++, >100)

* * *

- ASSAY_SYSTEM: Cathepsin S (Homo sapiens, UniProt P25774)
- Sequence (P25774 115-331, species assumed): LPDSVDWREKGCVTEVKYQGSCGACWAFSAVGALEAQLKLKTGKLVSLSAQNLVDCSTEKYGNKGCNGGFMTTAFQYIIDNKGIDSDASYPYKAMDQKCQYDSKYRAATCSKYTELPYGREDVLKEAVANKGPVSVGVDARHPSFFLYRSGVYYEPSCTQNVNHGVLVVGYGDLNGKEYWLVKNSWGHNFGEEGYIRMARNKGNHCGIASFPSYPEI
- PROCEDURE_DETAILS: Cathepsin S inhibition assay (fluorogenic peptide substrate)
- Assay type: biochemical
- DETAILS: Table II, compounds of Formula I; read-out: Ki Cat. S
pKi: −log10 of the molar value.
PARAMETER: pKi

pKi reported for this molecule COc1ccc(NCCNC(=O)[C@H](Cc2ccc(Oc3cccc(C)c3C)cc2)NC(=O)c2cccc(C)c2)cc1 [Compound 7] : > 6.00

pKi reported for this molecule COc1ccc(NCCNC(=O)[C@H](CCC2CCCCC2)NC(=O)c2ccc(-n3cncn3)cc2)cc1 [Compound 143] : > 6.00

pKi reported for this molecule COc1ccc(NCCNC(=O)[C@H](CC2CCCCC2)NC(=O)c2ccc(C#N)cc2)cc1 [Compound 121] : > 7.00

pKi reported for this molecule CC(C)Oc1ccc(C(=O)N[C@@H](CC2CCCCC2)C(=O)NCCNc2ccc(OC(F)(F)F)cc2)cc1 [Compound 61] : > 6.00

pKi reported for this molecule Cc1cc(C)nc(N2CCC(C(=O)N[C@@H](CC3CCCCC3)C(=O)NCCNc3ccc(OC(F)(F)F)cc3)CC2)n1 [Compound 72] : > 5.00

pKi reported for this molecule Cc1oc(S(=O)(=O)N2CCCC2)cc1C(=O)N[C@@H](CC1CCCCC1)C(=O)NCCNc1ccc(OC(F)(F)F)cc1 [Compound 40] : > 6.00

pKi reported for this molecule COc1ccc(NCCNC(=O)[C@H](Cc2ccccc2)NC(=O)c2cccc(Br)c2)cc1 [Compound 78] : > 7.00

* * *

- ASSAY_SYSTEM: Cathepsin K (Homo sapiens)
- Sequence (P43235 115-329): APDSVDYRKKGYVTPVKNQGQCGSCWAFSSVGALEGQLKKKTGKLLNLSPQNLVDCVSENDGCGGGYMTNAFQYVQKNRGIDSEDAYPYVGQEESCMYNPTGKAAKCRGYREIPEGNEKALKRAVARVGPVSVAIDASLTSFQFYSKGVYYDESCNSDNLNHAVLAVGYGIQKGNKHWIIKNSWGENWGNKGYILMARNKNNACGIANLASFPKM
- PROCEDURE_DETAILS: Cathepsin K inhibition assay (fluorogenic peptide substrate); selectivity ratio vs cathepsin S
- Assay type: biochemical
- DETAILS: ratio of cathepsin K inhibition constant to cathepsin S inhibition constant; Table II
PARAMETER: Selectivity for Cat. S over Cat. K

Check out these entries, answers already filled in.
O=C(Cc1ccsc1)N[C@@H](CC1CCCCC1)C(=O)NCCNc1ccc(F)cc1	++ (++, >100)
COc1ccc(NCCNC(=O)[C@H](Cc2ccc(-c3cccc(OC)c3OC)cc2)NC(=O)c2cccc(C)c2)cc1	++ (++, >100)
Cc1oc(S(=O)(=O)N2CCOCC2)cc1C(=O)N[C@@H](CC1CCCCC1)C(=O)NCCNc1ccc(OC(F)(F)F)cc1	++ (++, >100)
O=C(Cc1nnn[nH]1)N[C@@H](CC1CCCCC1)C(=O)NCCNc1ccc(F)cc1	++ (++, >100)
COc1ccc(NCCNC(=O)[C@H](Cc2ccc(O)cc2)NC(=O)c2cccc(C)c2)cc1	+++ (+++, >1000)

Value (Selectivity for Cat. S over Cat. K, Cathepsin K (Homo sapiens)) for record COc1ccc(NCCNC(=O)[C@H](Cc2ccc(-c3ccc(N(C)C)cc3)cc2)NC(=O)c2cccc(C)c2)cc1 = ++ (++, >100)

Value (Selectivity for Cat. S over Cat. K, Cathepsin K (Homo sapiens)) for record COc1ccc(NCCNC(=O)[C@H](CC2CCCCC2)NC(=O)c2cc(F)ccc2C)cc1 = +++ (+++, >1000)

Value (Selectivity for Cat. S over Cat. K, Cathepsin K (Homo sapiens)) for record C[C@H](C(=O)N[C@@H](CC1CCCCC1)C(=O)NCCNc1ccc(F)cc1)c1ccccc1 = ++ (++, >100)

Value (Selectivity for Cat. S over Cat. K, Cathepsin K (Homo sapiens)) for record COc1ccc(NCCNC(=O)[C@H](CC2CCCCC2)NC(=O)c2ccc(C)c(Br)c2)cc1 = ++ (++, >100)

Value (Selectivity for Cat. S over Cat. K, Cathepsin K (Homo sapiens)) for record COc1ccc(NCCNC(=O)[C@H](CCC2CCCCC2)NC(=O)c2cccc(-c3ccccc3)c2)cc1 = +++ (+++, >1000)

Value (Selectivity for Cat. S over Cat. K, Cathepsin K (Homo sapiens)) for record O=C(N[C@@H](CC1CCCCC1)C(=O)NCCNc1ccc(OC(F)(F)F)cc1)c1ccc(-c2ccccc2F)s1 = ++ (++, >100)

Value (Selectivity for Cat. S over Cat. K, Cathepsin K (Homo sapiens)) for record Cc1ccc(C(C)C(=O)N[C@@H](CC2CCCCC2)C(=O)NCCNc2ccc(F)cc2)cc1 (stereo partly drawn) = ++ (++, >100)

Value (Selectivity for Cat. S over Cat. K, Cathepsin K (Homo sapiens)) for record COc1ccc(NCCNC(=O)[C@H](CC2CCCCC2)NC(=O)c2ccc3nc(N)sc3c2)cc1 = + (+, >10)

Value (Selectivity for Cat. S over Cat. K, Cathepsin K (Homo sapiens)) for record CC(=O)N1CCC(C(=O)N[C@@H](CC2CCCCC2)C(=O)NCCNc2ccc(F)cc2)CC1 = + (+, >10)

Value (Selectivity for Cat. S over Cat. K, Cathepsin K (Homo sapiens)) for record COc1ccc(NCCNC(=O)[C@H](Cc2ccc(Oc3cc(Cl)cc(Cl)c3)cc2)NC(=O)c2cccc(C)c2)cc1 = + (+, >10)
